Origin of values: ChEMBL document CHEMBL4184265

# MEASUREMENT NOTES: Volume of distribution at steady state in Sprague-Dawley rat at 1 mg/kg, iv
# Type: ADME, organism-based
# EXPERIMENTAL CONTEXT: in vivo, read-out: Vdss
RESULT TYPE: Vd (L/kg)
Just the number please, in L/kg, no unit attached.

// CNC(=O)c1c(-c2ccc(F)cc2)oc2cc3c(cc12)[C@H](C)O[C@H](CO)CN3S(C)(=O)=O : Vd value = 2.25

// CNC(=O)c1c(-c2ccc(F)cc2)oc2cc3c(cc12)[C@H](C)CCCN3S(C)(=O)=O : Vd value = 2.36

// CNC(=O)c1c(-c2ccc(F)cc2)oc2cc3c(cc12)[C@H](C)NC(=O)CN3S(C)(=O)=O : Vd value = 1.74

// CNC(=O)c1c(-c2ccc(F)cc2)oc2cc3c(cc12)C(C)OC(CS(C)(=O)=O)CN3S(C)(=O)=O (racemic) : Vd value = 1.51

// CNC(=O)c1c(-c2ccc(F)cc2)oc2cc3c(cc12)[C@H](C)n1nncc1CN3S(C)(=O)=O : Vd value = 1.41

// CNC(=O)c1c(-c2ccc(F)cc2)oc2cc3c(cc12)[C@@H](C)OCCN3S(C)(=O)=O : Vd value = 1.79

// CNC(=O)c1c(-c2ccc(F)cc2)oc2cc(N(CCO)S(C)(=O)=O)c(C3CC3)cc12 : Vd value = 1.52

----------
# System: Rattus norvegicus
# MEASUREMENT NOTES: Clearance in Sprague-Dawley rat at 1 mg/kg, iv
# Format: ADME, organism-based
# EXPERIMENTAL CONTEXT: in vivo
Please mark met if the recorded clearance is equal to or greater than 20 mL/min/kg, and not met if it falls below.

Exercise: Textbook exercise: given the entry CNC(=O)c1c(-c2ccc(F)cc2)oc2cc(N(CCO)S(C)(=O)=O)c(C3CC3)cc12 [NESBUVIR] , state whether its clearance is greater than or equal to 20 mL/min/kg.
Solution: not met

Exercise: Textbook exercise: given the entry CNC(=O)c1c(-c2ccc(F)cc2)oc2cc3c(cc12)[C@H](C)NC(=O)CN3S(C)(=O)=O , state whether its clearance is greater than or equal to 20 mL/min/kg.
Solution: met

Exercise: Textbook exercise: given the entry CNC(=O)c1c(-c2ccc(F)cc2)oc2cc3c(cc12)[C@H](C)O[C@H](CO)CN3S(C)(=O)=O , state whether its clearance is greater than or equal to 20 mL/min/kg.
Solution: met

Exercise: Textbook exercise: given the entry CNC(=O)c1c(-c2ccc(F)cc2)oc2cc3c(cc12)[C@H](C)CCCN3S(C)(=O)=O , state whether its clearance is greater than or equal to 20 mL/min/kg.
Solution: met

Exercise: Textbook exercise: given the entry CNC(=O)c1c(-c2ccc(F)cc2)oc2cc3c(cc12)C(C)OC(CS(C)(=O)=O)CN3S(C)(=O)=O (racemic) , state whether its clearance is greater than or equal to 20 mL/min/kg.
Solution: not met

Exercise: Textbook exercise: given the entry CNC(=O)c1c(-c2ccc(F)cc2)oc2cc3c(cc12)[C@H](C)n1nncc1CN3S(C)(=O)=O , state whether its clearance is greater than or equal to 20 mL/min/kg.
Solution: not met

Exercise: Textbook exercise: given the entry CNC(=O)c1c(-c2ccc(F)cc2)oc2cc3c(cc12)[C@@H](C)OCCN3S(C)(=O)=O , state whether its clearance is greater than or equal to 20 mL/min/kg.
Solution: met
